Data provenance: PubChem BioAssay (NCI)

System: OVCAR-8 ovarian
protocolText: NCI tumour cell line growth inhibition, 48 h
measurementLabel: TGI

compound	assayedTarget	TGI
COc1cc2c3c(n(C)c(=O)c2cc1OC)-c1cc2c(cc1/C3=C\CCCN)OCO2	OVCAR-8 ovarian	22.4 µM

Input: Complete the entry with TGI for CO[C@H]1/C=C(/C)CCC[C@H](C)[C@H](O)[C@@H](C)C(=O)C(C)(C)[C@@H](O)CC(=O)O[C@@H]1/C(C)=C/c1csc(C)n1
Output: > 100 µM

Input: Complete the entry with TGI for CC(=O)[C@@]12O[C@@H]1CC1C3CCC4=CC(O)CCC4(C)C3CCC12C (stereo partly drawn)
Output: 82.3 µM

Input: Complete the entry with TGI for CCOC(=O)c1nc2c(nc1C(=O)OCC)C(=O)c1ccccc1C2=O
Output: 6.56 µM

----------
Test system: OVCAR-3 ovarian
protocolText: NCI tumour cell line growth inhibition, 48 h
measurementLabel: GI50

Would you please look over these solved cases?
> print(dat)
                                 smilesrepr  measured
1  COc1ccc(-c2nnc(COc3ccc(C(=O)/C=C/c4ccco4)cc3)o2)cc1   1950 nM
2  COc1cc(/C=C2\CN(S(=O)(=O)c3ccccc3)C/C(=C\c3cc(CN4CCCC4)c(O)c(OC)c3)C2=O)cc(CN2CCCC2)c1O   1020 nM

With those in mind, consider the next compound.
Input: Under OVCAR-3 ovarian: report GI50 of O=C(CCc1nnc2sc(-c3ccc(Cl)cc3Cl)nn12)c1nc2ncccc2[nH]1 .
Output: 1520 nM

----------
System: SR leukemia
protocolText: NCI tumour cell line growth inhibition, 48 h
Form field: TGI (one value per entry).

> print(dat)
                                   compound  assayedtarget  measurementlabel   measured
1  CN(C(=O)c1ccc(C(F)(F)F)cc1)c1ccc(Oc2ccc3c(c2)cc(C(=O)N2CCN(Cc4ccc(OC(F)F)cc4)CC2)n3C)nc1    SR leukemia               TGI   > 100 µM
2  COc1cccc2c(=O)oc(-c3ccc(C(C)(C)C)cc3)nc12    SR leukemia               TGI    63.1 µM
3           O=C(Nc1nccs1)c1c(O)nc2sccn2c1=O    SR leukemia               TGI    > 10 µM
4  O=c1c2sccc2n(CC2COc3ccccc3O2)c(=O)n1O (stereo not drawn)    SR leukemia               TGI   > 100 µM
5  Nc1ncnc2c1nnn2C1OC(CO)C(O)C1O (stereo not drawn)    SR leukemia               TGI  > 12.7 µM

Input: Complete the entry with TGI for COc1cccc(CCCNC(=O)Cc2cc(OC)c(OC)cc2CO)c1
Output: > 100 µM

Input: Complete the entry with TGI for CC1=NS(=O)(=O)c2ccccc2N1
Output: > 100 µM

Input: Complete the entry with TGI for CCCCCCN(CCCCCC)C(=O)Cc1c2n(c3ccccc13)Cc1ccccc1-2
Output: > 100 µM

----------
Test system: SK-MEL-28 melanoma
protocolText: NCI tumour cell line growth inhibition, 48 h
measurementLabel: TGI

Would you please look over these solved cases?
compound	assayedTarget	TGI
COC(OC)C(C)CC(=O)N(C)C (stereo not given)	SK-MEL-28 melanoma	> 100 µM
C=C(Br)C(C)(Br)CCC(Br)C(C)(C)Cl (stereo not given)	SK-MEL-28 melanoma	33.3 µM

Input: Complete the entry with TGI for COc1ccc2c(C)cc(=O)oc2c1OC
Output: > 100 µM

Input: Complete the entry with TGI for Cc1nc(N)c(N2CCN([N+](=O)[O-])CC2)c(=O)[nH]1
Output: > 100 µM

----------
Test system: MALME-3M melanoma
protocolText: NCI tumour cell line growth inhibition, 48 h; in the data active = GI50 below about 0.43 µM; inactive = the rest
The categories you may choose from are active, inactive

compound	assayedTarget	classAssignment
COc1cc2c3c(n(C)c(=O)c2cc1OC)-c1cc2c(cc1/C3=C\CCCN)OCO2	MALME-3M melanoma	inactive
CCCCCCCC(=O)SCC/C=C/[C@@H]1CC(=O)NCc2cc(ccn2)C2=N[C@@](C)(CS2)C(=O)N[C@@H](C(C)C)C(=O)O1	MALME-3M melanoma	active
CCN1CCN(c2nc(C)cc(N(CCNc3ccnc4cc(Cl)ccc34)Cc3ccc4c(c3)OCO4)n2)CC1	MALME-3M melanoma	inactive
C[C@@H]1CCC2[C@@H](C)[C@@H](OCC(CO[C@H]3OC4O[C@@]5(C)CC[C@H]6[C@H](C)CCC([C@H]3C)[C@@]46OO5)OC(=O)CCC(=O)O)OC3O[C@@]4(C)CC[C@@H]1[C@]32OO4 (stereo partly specified)	MALME-3M melanoma	active
[Cl-].[La+3].[O-]/N=C(\c1ccccc1)c1ccccn1.[O-]/N=C(\c1ccccc1)c1ccccn1.[O-]/N=C(\c1ccccc1)c1ccccn1	MALME-3M melanoma	inactive

Input: How was CC(C)[C@H]1COC(=O)N1[C@@H]1C(=O)N([C@@H](CCC(=O)N2CCN(C3CCCC3)CC2)C(=O)N[C@@H]2CCCc3ccccc32)[C@@H]1/C=C/c1cccc(Br)c1 classified in this test?
Output: inactive

----------
Tested on: SK-MEL-2 melanoma
protocolText: NCI tumour cell line growth inhibition, 48 h
measurementLabel: TGI (µM)
Give the value, in units of µM, as a plain number.

> print(dat)
                                   compound      assayedtarget  measured
1  Cc1cccc2c1CC1(C2)Cc2c(C)cccc2C1=O (stereo unspecified)  SK-MEL-2 melanoma      38.3
2  CCN(CC)/C(SCc1ccccc1)=C(\C(Cl)=C(Cl)Cl)[N+](=O)[O-]  SK-MEL-2 melanoma      45.5

Input: Complete the entry with TGI for ClCc1cccc(Cn2cnc3ncnc(Cl)c32)c1
Output: 22.8

Input: Complete the entry with TGI for COc1ccc(-c2nnc(COc3ccc(NC(=O)Nc4cc(C(F)(F)F)cc(C(F)(F)F)c4)cc3F)o2)cc1
Output: 5.82

Input: Complete the entry with TGI for Cn1cnc([N+](=O)[O-])c1S(=O)(=O)Oc1cccc2ccccc12
Output: 20

Input: Complete the entry with TGI for Cc1cc2c(cc1Cl)SC(N(N(C)C)S(=O)(=O)c1ccc(Cl)cc1)=NS2(=O)=O
Output: 66.6

Input: Complete the entry with TGI for Cc1ccc(S(=O)(=O)N/N=C/C2(c3ccccc3)c3ccccc3-c3ccccc32)cc1
Output: 25.9

Input: Complete the entry with TGI for CCOC(=O)C(=C=C=C(c1ccccc1)c1ccccc1)C(=O)OCC
Output: 36.9

Input: Complete the entry with TGI for Cc1cc(N(CCOS(C)(=O)=O)CCOS(C)(=O)=O)ccc1C=O
Output: 72.9

Input: Complete the entry with TGI for NC1(C(=O)OCc2ccccc2)CCCC1
Output: 40.2

----------
Tested on: A549 NSCLC
protocolText: NCI tumour cell line growth inhibition, 48 h
Form field: TGI (one value per entry).

Would you please look over these solved cases?
> print(dat)
                                   compound  measurementlabel  measured
1                 CC(=O)Nc1nc(C#N)[nH]c1C#N               TGI  > 100 µM
2    CCOC(=O)c1cc2nc3ccccc3c(=O)n2c2ccccc12               TGI   > 10 µM
3  Cc1cccc(NC(=O)Cn2cnc3sc(C(=O)OC(C)C)c(C)c3c2=O)c1               TGI   > 50 µM
4  CCN(CC)c1ccc(-c2cc(-c3cc(OC)c(OC)c(OC)c3)nc(N3CCOCC3)c2C#N)cc1               TGI  > 100 µM
5   CN1CSC(=S)N(c2c3ccccc3nc3ccc(Br)cc23)C1               TGI   21.6 µM
6  c1ccc(COc2cccc3ccc[n+](Cc4ccccc4)c23)cc1               TGI  > 100 µM

Input: Complete the entry with TGI for Cc1cc(I)cc(CN(C)CCCN2CCCCC2)c1O
Output: 35.7 µM

Input: Complete the entry with TGI for CN(C(=O)c1ccc(C(F)(F)F)cc1)c1ccc(Oc2ccc3c(c2)cc(C(=O)N2CCN(Cc4ccc(OC(F)F)cc4)CC2)n3C)nc1
Output: > 100 µM

Input: Complete the entry with TGI for Cc1nc(N)c(N2CCN([N+](=O)[O-])CC2)c(=O)[nH]1
Output: > 100 µM

Input: Complete the entry with TGI for CCCCC(C(=O)NCCNC(=O)CCC(=O)N(C)O)C(=O)NCCNC(=O)CCC(=O)N(C)O
Output: > 100 µM

Input: Complete the entry with TGI for CC1(C)CCCC2OC2CCC(C)(C)C1=O (stereo not given)
Output: > 100 µM

Input: Complete the entry with TGI for O=C(/C=C/c1ccc(Cl)cc1)c1ccc(Nc2ccnc3cc(Cl)ccc23)cc1
Output: > 100 µM

Input: Complete the entry with TGI for CCCCCCN(CCCCCC)C(=O)Cc1c2n(c3ccccc13)Cc1ccccc1-2
Output: > 100 µM

Input: Complete the entry with TGI for CCN1c2ccccc2C(C(SC)S(=O)(=O)c2ccc(C)cc2)c2c1[nH]c(=O)n(C)c2=O (stereo not given)
Output: > 100 µM

Input: Complete the entry with TGI for Nc1ncnc2c1nnn2C1OC(CO)C(O)C1O (stereo not given)
Output: 19.2 µM
